system.name: T1, IL-2Rβ/γ-Fc heterodimer (IL-2Rβ-Fc-hole with IL-2Rγ-Fc-knob)
T1 construct: Co-expressed in HEK293 cells and purified with Protein A and Superdex 200
test.summary: SPR (Biacore), IL-2Rβ/γ-Fc captured on Protein A chip, 1:1 model
observed.property: kon (M⁻¹ s⁻¹)
Respond with the bare value in M⁻¹ s⁻¹.

For the binder IL-2-07 (F42A/Y45A) (ligand, The entry already carries the mutations and C125A and begins with M. Made in E. coli) MAPTSSSTKKTQLQLEHLLLDLQMILNGINNYKNPKLTRMLTAKFAMPKKATELKHLQCLEEELKPLEEVLNLAQSKNFHLRPRDLISNINVIVLELKGSETTFMCEYADETATIVEFLNRWITFAQSIISTLT , what kon is on record?
822000

Can you handle IL-2-08 (F42A/L72G) (ligand, The entry already carries the mutations and C125A and begins with M. Made in E. coli) MAPTSSSTKKTQLQLEHLLLDLQMILNGINNYKNPKLTRMLTAKFYMPKKATELKHLQCLEEELKPLEEVLNGAQSKNFHLRPRDLISNINVIVLELKGSETTFMCEYADETATIVEFLNRWITFAQSIISTLT next?
920000

Here is the next binder: IL-2-09 (Y45A/L72G) (ligand, The entry already carries the mutations and C125A and begins with M. Made in E. coli) MAPTSSSTKKTQLQLEHLLLDLQMILNGINNYKNPKLTRMLTFKFAMPKKATELKHLQCLEEELKPLEEVLNGAQSKNFHLRPRDLISNINVIVLELKGSETTFMCEYADETATIVEFLNRWITFAQSIISTLT
646000

Ok, now IL-2-04 (L70C/P82C) (ligand, The entry already carries the mutations and C125A and begins with M. Made in E. coli) MAPTSSSTKKTQLQLEHLLLDLQMILNGINNYKNPKLTRMLTFKFYMPKKATELKHLQCLEEELKPLEEVCNLAQSKNFHLRCRDLISNINVIVLELKGSETTFMCEYADETATIVEFLNRWITFAQSIISTLT
498000
